The reported numbers originate from PubChem BioAssay.

Entries and their NADPH fluorescence slope
# target-entity: Voltage-gated potassium channel subunit beta-2 (Rattus norvegicus)
# procedure-summary: enhancers of rat Kvbeta2 NADPH turnover – biochemical, NADPH fluorescence, primary screen (AID 623);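 note: fluorescence intensity change per second fitted from 20 to 320 s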
# assay-conditions: Recombinant KvBeta, NADPH fluorescence decrease slope, 10 min; at 10 µM; stronger effect = lower value
Calls of active or inactive are those of the source.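 Rule for the calls: active = NADPH fluorescence slope more negative than the mean of all samples by about 3 SD, 99.7% confidence; inactive = the rest.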

Example results:
CC1(C)CC(=O)C2=C(C1)OC(N)=C(C#N)C2C1CC=CCC1 (stereo not given): -1.7e-05 (inactive)
O=C(NCC1CCCO1)C1c2ccccc2C(=O)N1C1CCCCCC1 (stereo not given): 2.7e-06 (inactive)
CCN(C1CCCCC1)S(=O)(=O)c1ccc(S(=O)(=O)N2CCN(CCC#N)CC2)cc1: -1.5e-05 (inactive)
COCC(=O)N(C)c1nnc(-c2ccccn2)s1: -1.3e-05 (inactive)
COc1ccc(-c2cc3c(=O)n(CC(=O)NC4CCN(Cc5ccccc5)CC4)ncn3n2)cc1: -4.1e-05 (inactive)

Ask: Request the reported NADPH fluorescence slope associated with C=CCn1c(=O)c(C(=O)Nc2ccccc2C(=O)OCC)c(O)c2ccccc21
Reply: -4.7e-05 (inactive)

Ask: Request the reported NADPH fluorescence slope associated with O=C(Nc1nc2c(s1)CCc1ccccc1-2)c1cccs1
Reply: 1.5e-05 (inactive)

Ask: Request the reported NADPH fluorescence slope associated with CCOC(=O)c1c(NC(=O)c2ccn(CC)n2)sc2c1CCCC2
Reply: -1.5e-06 (inactive)

Ask: Request the reported NADPH fluorescence slope associated with COc1ccc2c(c1)C(C)=CC(C)(C)N2C(=O)CSc1nnc(-c2ccc(C)cc2)o1
Reply: 4.8e-05 (inactive)

Ask: Request the reported NADPH fluorescence slope associated with O=C(CN1CCN(Cc2ccc(F)cc2Cl)C1=O)NCCCN1CCOCC1
Reply: -3.8e-05 (inactive)

====

Entries and their inhibition
# procedure-summary: inhibitors of TNFa-induced NFkB p65 translocation, primary screen, imaging, HUVEC, MLSMR starter and 10KST1 sets (AID 438);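 note: compound added about 3h40 before a 20 min TNFalpha stimulation; signal is the nuclear over cytoplasmic p65 intensity ratio per well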
# assay-conditions: HUVEC TNFa-induced p65 nuclear translocation; at 2 µM, stronger effect = higher value, 0% TNFa-plus-vehicle, 100% no-TNFa wells
Give just the number in %; leave the unit off.

Example results:
COc1cc(C(=O)N2CCN(c3cc(Cl)ccc3Cl)CC2)cc(OC)c1OC: -6.1
COc1ccccc1-n1c(-c2cccnc2)n[nH]c1=S: -4.8
Cc1ccc2nc(NC(=O)C3CCCN(S(=O)(=O)c4cccc5nonc45)C3)sc2c1 (stereo unspecified): -13.5
CCc1nc2sc(C)c(C)c2c(=O)n1CCO: 7.2
NS(=O)(=O)c1ccc(CCNC(=O)c2cccnc2)cc1: -8.3
CCOc1ccc(-c2c(C#N)c(N)nc3c2c(=O)n(C)c(=O)n3C)cc1OC: -1.1
Cc1nc2sc(C(c3cccc(F)c3)N3CCCCC3)c(O)n2n1 (stereo unspecified): -2.8
CN1CCN(C(=O)NC2CCCN2S(=O)(=O)c2ccc(Cl)cc2)CC1 (stereo unspecified): -20.6

Ask: Request the reported inhibition associated with O=C(Nc1ccccc1N1CCN(c2ccc(F)cc2)CC1)c1ccccc1
Reply: 7.6

Ask: Request the reported inhibition associated with CCOC(=O)c1[nH]c(C)c(C(=O)NCC2CCCO2)c1C (stereo unspecified)
Reply: 2.8

Ask: Request the reported inhibition associated with O=C(c1cc(S(=O)(=O)N2CCOCC2)ccc1F)N1CCCc2ccccc21
Reply: -26.9

Ask: Request the reported inhibition associated with O=C(Nn1cnnc1)c1cc2c(s1)CCCC2
Reply: -3.4

Ask: Request the reported inhibition associated with O=C(Nc1cnn(C23CC4CC(CC(C4)C2)C3)c1)c1cnn2c(C(F)(F)F)cc(-c3ccco3)nc12
Reply: -8.8
